experiment: in vivo; settings: rat, po, 3.35 mg/kg
readout name: bioavailability at 24 h (%)
Provide only the numeric value, understood in %.

get_value(item= Cc1c(N2CC[C@@H](C3(N)CC3)C2)c(F)cc2cc(C(=O)O)c(=O)n(C3CC3)c12 , readout=bioavailability at 24 h) returns 70

###

Answer each item with its documented MIC.
system: Staphylococcus aureus; assay: microbe, parasite or virus in culture; conditions: ATCC 49951
Provide only the numeric value, understood in µg/mL.

Known value: Staphylococcus aureus MIC of the compound C[C@H]1COc2c(N3CC[C@@H](C4(N)CC4)C3)c(C#N)cc3cc(C(=O)O)c(=O)n1c23 equals 0.25

Known value: Staphylococcus aureus MIC of the compound Cc1c(N2CCC(C3(N)CC3)C2)c(F)cc2c(-c3n[nH]c(=O)o3)cc(=O)n(C3CC3)c12 (centres undefined) equals 0.5

Known value: Staphylococcus aureus MIC of the compound Cc1c(N2CC[C@@H](C3(N)CC3)C2)c(F)cc2cc(Cc3n[nH]c(=O)o3)c(=O)n(C3CC3)c12 equals 32

Known value: Staphylococcus aureus MIC of the compound C[C@H]1COc2c(N3CCN(C)CC3)c(F)cc3cc(C(=O)O)c(=O)n1c23 equals 16

###

assay: physchem
readout name: pKa
Lab note: jot the number down without any unit.

get_value(item= Cc1c(N2CCC(C3(N)CC3)C2)c(F)cc2c(CC(=O)N(C)C)cc(=O)n(C3CC3)c12 (centres undefined) , readout=pKa) returns 8.5

get_value(item= C[C@H]1COc2c(N3CC4CCC[C@@H](N)[C@H]4C3)c(F)cc3cc(C(=O)O)c(=O)n1c23 (single isomer, unassigned) , readout=pKa) returns 5.2

get_value(item= Cc1c(N2CC[C@@H]([C@H](C)N)C2)c(F)cc2ccc(=O)n(C3CC3)c12 , readout=pKa) returns 9.6

get_value(item= C[C@H]1COc2c(N3CC(CN)C4(CCC4)C3)c(F)cc3cc(C(=O)O)c(=O)n1c23 (some centres undefined) , readout=pKa) returns 5.2

###

test: physchem; conditions: octanol/water, pH 7.4
Label YES when logD is strictly below -0.5; at or above that, label NO.

Exam item: Does C[C@H]1COc2c(N3CC4C[C@H](F)C[C@@H](N)[C@H]4C3)c(F)cc3cc(C(=O)O)c(=O)n1c23 (single isomer, unassigned) have logD strictly under -0.5?
Marked response: YES

Exam item: Does C[C@H]1COc2c(N3CC[C@@H](C4(N)CC4)C3)c(F)c(Cl)c3cc(C(=O)O)c(=O)n1c23 have logD strictly under -0.5?
Marked response: NO

Exam item: Does C[C@H]1COc2c(N3CC[C@@H](C4(N)CC4)C3)c(Cl)cc3cc(C(=O)O)c(=O)n1c23 have logD strictly under -0.5?
Marked response: YES

Exam item: Does Cc1c(N2CC[C@@H](C3(N)CC3)C2)c(F)cc2cc(C(=O)O)c(=O)n(C3CC3)c12 have logD strictly under -0.5?
Marked response: NO

Exam item: Does C[C@H]1CCOc2c(N3CC[C@@H](C4(N)CC4)C3)c(F)cc3cc(C(=O)O)c(=O)n1c23 have logD strictly under -0.5?
Marked response: NO

Exam item: Does C[C@H]1COc2c(N3CC[C@@H](C4(N)CC4)C3)cc(C#N)c3cc(C(=O)O)c(=O)n1c23 have logD strictly under -0.5?
Marked response: YES

Exam item: Does C[C@@H]1COc2c(N3CC[C@@H](C4(N)CC4)C3)c(F)cc3cc(C(=O)O)c(=O)n1c23 have logD strictly under -0.5?
Marked response: YES

Exam item: Does Cc1c(N2CCC(C3(N)CC3)C2)c(F)cc2c(Cc3n[nH]c(=O)o3)cc(=O)n(C3CC3)c12 (stereo not drawn) have logD strictly under -0.5?
Marked response: NO

###

molecular target: hERG (KCNH2) (Homo sapiens, UniProt Q12809); assay: in vitro; settings: CHO-K1 cells expressing human ERG
Sequence (Q12809 whole entry): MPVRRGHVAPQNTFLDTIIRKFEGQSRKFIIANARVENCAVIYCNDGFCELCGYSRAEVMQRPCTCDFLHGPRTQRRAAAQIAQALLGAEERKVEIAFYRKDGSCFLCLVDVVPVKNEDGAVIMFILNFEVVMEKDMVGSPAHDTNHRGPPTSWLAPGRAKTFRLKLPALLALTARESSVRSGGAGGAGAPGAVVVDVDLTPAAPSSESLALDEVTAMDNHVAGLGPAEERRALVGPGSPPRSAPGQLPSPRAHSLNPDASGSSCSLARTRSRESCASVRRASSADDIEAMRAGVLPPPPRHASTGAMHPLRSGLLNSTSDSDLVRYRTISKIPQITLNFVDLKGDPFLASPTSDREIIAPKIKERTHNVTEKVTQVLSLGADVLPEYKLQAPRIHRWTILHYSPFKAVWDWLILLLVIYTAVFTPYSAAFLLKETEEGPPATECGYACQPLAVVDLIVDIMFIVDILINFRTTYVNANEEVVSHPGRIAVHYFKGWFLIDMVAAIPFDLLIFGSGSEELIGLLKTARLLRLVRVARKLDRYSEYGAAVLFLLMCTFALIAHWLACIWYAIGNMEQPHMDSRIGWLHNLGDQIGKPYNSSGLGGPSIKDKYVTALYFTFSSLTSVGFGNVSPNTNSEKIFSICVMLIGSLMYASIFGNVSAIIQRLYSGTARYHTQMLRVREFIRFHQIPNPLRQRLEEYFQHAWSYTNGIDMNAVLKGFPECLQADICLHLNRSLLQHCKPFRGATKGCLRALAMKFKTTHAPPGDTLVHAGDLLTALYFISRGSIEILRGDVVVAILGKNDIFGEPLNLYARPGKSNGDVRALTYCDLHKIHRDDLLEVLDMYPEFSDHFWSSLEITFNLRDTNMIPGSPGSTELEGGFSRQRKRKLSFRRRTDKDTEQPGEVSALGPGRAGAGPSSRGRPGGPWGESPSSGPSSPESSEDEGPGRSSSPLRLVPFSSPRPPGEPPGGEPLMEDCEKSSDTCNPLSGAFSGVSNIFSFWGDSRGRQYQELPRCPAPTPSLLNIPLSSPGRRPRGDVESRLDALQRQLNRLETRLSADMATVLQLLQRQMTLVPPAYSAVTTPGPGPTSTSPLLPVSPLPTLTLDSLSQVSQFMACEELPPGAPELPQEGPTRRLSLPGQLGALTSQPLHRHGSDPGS
Answer each item with its documented inhibition at 300 µM.
Provide only the numeric value, understood in %.

get_value(item= C[C@H](N)[C@@H]1CCN(c2c(F)cc3cc(C(=O)O)c(=O)n4c3c2OC[C@@H]4C)C1 , readout=inhibition at 300 µM) returns 8.3

get_value(item= C[C@H]1COc2c(N3CC[C@@H](C4(N)CC4)C3)c(F)cc3cc(C(=O)O)c(=O)n1c23 , readout=inhibition at 300 µM) returns 27

###

assay: in vivo; settings: mouse, iv
readout name: half-life at 24 h (h)
Provide only the numeric value, understood in h.

get_value(item= C[C@H]1COc2c(N3CC[C@@H](C4(N)CC4)C3)c(F)cc3cc(C(=O)O)c(=O)n1c23 , readout=half-life at 24 h) returns 3.36

###

experiment: in vitro; settings: human, plasma
readout name: fraction unbound at 4 h, 10 µM
Lab note: jot the number down without any unit.

get_value(item= C[C@H]1COc2c(N3CC[C@@H](C4(N)CC4)C3)c(F)cc3cc(C(=O)O)c(=O)n1c23 , readout=fraction unbound at 4 h, 10 µM) returns 0.76

get_value(item= Cc1c(N2CCC(C3(N)CC3)C2)c(F)cc2c(Cc3n[nH]c(=O)o3)cc(=O)n(C3CC3)c12 (centres undefined) , readout=fraction unbound at 4 h, 10 µM) returns 0.27

get_value(item= Cc1c(N2CC[C@@H]([C@H](C)N)C2)c(F)cc2cc(C(=O)O)c(=O)n(C3CC3)c12 , readout=fraction unbound at 4 h, 10 µM) returns 0.54

get_value(item= Cc1c(N2CC[C@@H](C3(N)CC3)C2)c(F)cc2cc(C(=O)O)c(=O)n(C3CC3)c12 , readout=fraction unbound at 4 h, 10 µM) returns 0.21

###

assay: in vitro; settings: human, Caco-2
readout name: Papp A→B at 2 h, 10 µM (×10⁻⁶ cm/s)
Provide only the numeric value, understood in ×10⁻⁶ cm/s.

get_value(item= Cc1c(N2CC[C@@H](C3(N)CC3)C2)c(F)cc2cc(C(=O)O)c(=O)n(C3CC3)c12 , readout=Papp A→B at 2 h, 10 µM) returns 23.1

get_value(item= C[C@H](N)[C@@H]1CCN(c2c(F)cc3cc(C(=O)O)c(=O)n4c3c2OC[C@@H]4C)C1 , readout=Papp A→B at 2 h, 10 µM) returns 2.7

get_value(item= C[C@H]1COc2c(N3CC[C@@H](C4(N)CC4)C3)c(F)cc3cc(C(=O)O)c(=O)n1c23 , readout=Papp A→B at 2 h, 10 µM) returns 20

###

experiment: in vivo; details: dog, iv, 0.125 mg/kg
readout name: half-life at 24 h (h)
Provide only the numeric value, understood in h.

get_value(item= C[C@H]1COc2c(N3CC[C@@H](C4(N)CC4)C3)c(F)cc3cc(C(=O)O)c(=O)n1c23 , readout=half-life at 24 h) returns 9.95

###

assay: physchem
Answer each item with its documented pKa.
Lab note: jot the number down without any unit.

get_value(item= Cc1c(N2CC[C@@H]([C@H](C)N)C2)c(F)cc2cc(C(=O)O)c(=O)n(C3CC3)c12 , readout=pKa) returns 5.2

get_value(item= Cc1c(N2CCC(C3(N)CC3)C2)c(F)cc2cc(C(=O)O)c(=O)n(C3CC3)c12 (stereo not drawn) , readout=pKa) returns 5.2

get_value(item= Cc1c(N2CC[C@@H](C3(N)CC3)C2)c(F)cc2cc(-c3n[nH]c(=O)o3)c(=O)n(C3CC3)c12 , readout=pKa) returns 7.2

get_value(item= C[C@H]1COc2c(N3C[C@H]4[C@H](C3)OCC[C@@H]4N)c(F)cc3cc(C(=O)O)c(=O)n1c23 , readout=pKa) returns 4.8

get_value(item= C[C@H]1COc2c(N3CC[C@H](N)C3)c(F)cc3cc(C(=O)O)c(=O)n1c23 , readout=pKa) returns 4.8

get_value(item= Cc1c(N2CCC(C3(N)CC3)C2)c(F)cc2c(Cc3noc(=S)[nH]3)cc(=O)n(C3CC3)c12 (stereo not drawn) , readout=pKa) returns 2.5

get_value(item= C[C@H]1COc2c(N3C[C@@H]4CCCN[C@@H]4C3)c(F)cc3cc(C(=O)O)c(=O)n1c23 , readout=pKa) returns 5

get_value(item= Cc1c(N2CC[C@@H]([C@H](C)N)C2)c(F)cc2cc(O)c(=O)n(C3CC3)c12 , readout=pKa) returns 8.2

###

test: in vivo; settings: dog, po, 1 mg/kg
readout name: Tmax at 24 h (h)
Provide only the numeric value, understood in h.

get_value(item= C[C@H]1COc2c(N3CC[C@@H](C4(N)CC4)C3)c(F)cc3cc(C(=O)O)c(=O)n1c23 , readout=Tmax at 24 h) returns 4

###

assay: physchem
Assign label 1 to entries whose pKa meets or exceeds 5; assign label 0 to the rest.

Exam item: hey, is pKa for this one >= 5? Cc1c(N2CC[C@@H](C3(N)CC3)C2)c(F)cc2cc(C#N)c(=O)n(C3CC3)c12
Marked response: label 1

Exam item: hey, is pKa for this one >= 5? Cc1c(N2CC[C@@H](C3(N)CC3)C2)c(F)cc2cc(-c3nnco3)c(=O)n(C3CC3)c12
Marked response: label 1

Exam item: hey, is pKa for this one >= 5? C[C@H]1COc2c(N3CC[C@H](O)C3)c(F)cc3cc(C(=O)O)c(=O)n1c23
Marked response: label 1

Exam item: hey, is pKa for this one >= 5? Cc1c(N2CCC(C3(N)CC3)C2)c(F)cc2c(-c3noc(=S)[nH]3)cc(=O)n(C3CC3)c12 (stereo not given)
Marked response: label 0

Exam item: hey, is pKa for this one >= 5? C[C@H]1COc2c(N3C[C@@H]4CCC[C@H](N)[C@H]4C3)c(F)cc3cc(C(=O)O)c(=O)n1c23
Marked response: label 1

Exam item: hey, is pKa for this one >= 5? COc1c(N2C[C@@H]3CCCN[C@@H]3C2)c(F)cc2c(=O)c(C(=O)O)cn(C3CC3)c12
Marked response: label 1

Exam item: hey, is pKa for this one >= 5? Cc1c(N2CC[C@@H](C3(N)CC3)C2)c(F)cc2cc(-c3ncon3)c(=O)n(C3CC3)c12
Marked response: label 1

Exam item: hey, is pKa for this one >= 5? Cc1c(N2CCC(C3(N)CC3)C2)c(F)cc2c(Cc3cc(O)no3)cc(=O)n(C3CC3)c12 (stereo not given)
Marked response: label 0

Exam item: hey, is pKa for this one >= 5? Cc1c(N2CCC(C3(N)CC3)C2)c(F)cc2c(-c3n[nH]c(=O)o3)cc(=O)n(C3CC3)c12 (stereo not given)
Marked response: label 1

Exam item: hey, is pKa for this one >= 5? C[C@H]1COc2c(N3CC4OCC[C@@H](N)[C@H]4C3)c(F)cc3cc(C(=O)O)c(=O)n1c23 (single isomer, unassigned)
Marked response: label 1

Exam item: hey, is pKa for this one >= 5? Cc1c(N2CC[C@@H](C3(N)CC3)C2)c(F)cc2cc(C(N)=O)c(=O)n(C3CC3)c12
Marked response: label 1

Exam item: hey, is pKa for this one >= 5? Cc1c(N2CC[C@@H](C3(N)CC3)C2)c(F)cc2cc(-c3noc(=O)[nH]3)c(=O)n(C3CC3)c12
Marked response: label 1

Exam item: hey, is pKa for this one >= 5? C[C@H]1COc2c(N3CCN(C)CC3)c(F)cc3cc(C(=O)O)c(=O)n1c23
Marked response: label 0

Exam item: hey, is pKa for this one >= 5? Cc1c(N2CC[C@@H](C3(N)CC3)C2)c(F)cc2cc(Cc3n[nH]c(=O)o3)c(=O)n(C3CC3)c12
Marked response: label 1
